The measurements presented in this section are drawn from PubChem BioAssay (Tox21).

assay: qHTS assay to identify small molecule antagonists of the estrogen related receptor (ERR) signaling pathway from Tox21 library (AID 1224848); conditions: ERR reporter cell line, luciferase antagonist mode, 18 h; series mostly up to 92.4 µM; note: nearly all actives have a fitted effect of over 50% in size; note: potency is the fitted concentration of half-maximal effect
Records with an inconclusive call do not appear. The source made the active and inactive calls. Calls come from the whole dose curve; as a rule, active = well fitted inhibition curve with a large enough effect in the repeat runs; inconclusive = weak or mixed curves; inactive = no such curve, though single readings can be large or run the other way.
MEASURED_ENDPOINT: Potency

The examples below pair each entry with its known result.
{"MOLECULE": "COC(=O)C1=C(C)NC(C)=C(C(=O)OC(C)(C)CN(C)CCC(c2ccccc2)c2ccccc2)C1c1cccc([N+](=O)[O-])c1 (stereo unspecified)", "MEASURED_RESULT": "13.3 µM (active)"}
{"MOLECULE": "COc1cc(NC(C)CCCN)c2ncccc2c1 (stereo unspecified)", "MEASURED_RESULT": "inactive"}
{"MOLECULE": "CC(CO)(CO)C(=O)O", "MEASURED_RESULT": "inactive"}
{"MOLECULE": "Cc1oc(=O)oc1COC(=O)[C@@H]1N2C(=O)[C@@H](NC(=O)[C@H](N)c3ccccc3)[C@H]2SC1(C)C", "MEASURED_RESULT": "inactive"}

Ask: Name the recorded Potency for CC(=O)OC(C)C[N+](C)(C)C (stereo unspecified) .
Reply: inactive

Ask: Thanks! And CCCCCCCCCCCCCC(=O)OCC(O)CO (stereo unspecified) ?
Reply: inactive

Ask: Thanks! And COc1cc(NCc2ccc3nc(N)nc(N)c3c2C)cc(OC)c1OC ?
Reply: 0.0473 µM (active)

Ask: One more molecule: CC(O)Cn1cnc2c1c(=O)n(C)c(=O)n2C (stereo unspecified)
Reply: inactive

Ask: CCN(Cc1cccc(S(=O)(=O)O)c1)c1ccc(C(=C2C=CC(=[N+](CC)Cc3cccc(S(=O)(=O)O)c3)C=C2)c2ccccc2S(=O)(=O)[O-])cc1 , same question.
Reply: 15.4 µM (active)

Ask: How about CC[C@@H](CO)NCCN[C@@H](CC)CO ?
Reply: inactive

Ask: # repeat for CNCc1ccc(NC(=O)c2c[nH]c3c2C(=O)CCC3)cc1
Reply: inactive
